- Test system: RXF 393 renal
- RUN_DESCRIPTION: NCI tumour cell line growth inhibition, 48 h
Residues, ends and D or L forms follow the SMILES beside them. *: point of attachment. Boc = CC(C)(C)OC(=O)*; OBn = c1ccc(CO*)cc1
Below, each of the compounds is paired with its reported TGI value.

Guide cases for TGI, answers given:
O/N=C1/C(=C/c2ccc(Cl)c(Cl)c2)CCCC1C(NO)c1ccc(Cl)c(Cl)c1 (stereo not given) : 43.3 µM
O=C(Nc1nc(-c2ccc(Cl)cc2)cs1)c1cc(-c2ccc(Br)cc2)nc2ccc(Cl)cc12 : 89.7 µM
COc1cc(-c2ccc(-c3ccc(C(=N)N)cc3)s2)cc(OC)c1OC : 4.08 µM

Inquiry: Query: TGI; subject: O=C(CSc1nnc(SCC(=O)NN=C2CCCCC2)s1)NN=C1CCCCC1
Reply text: > 100 µM

Inquiry: Query: TGI; subject: O=C(/C=C/NC(=O)OCc1ccccc1)OCc1ccccc1
Reply text: > 100 µM

Inquiry: Query: TGI; subject: CCOC(=O)/C=C(/C(=O)OCC)n1cc(C)c(=O)n(/C(=C/C(=O)OCC)C(=O)OCC)c1=O
Reply text: 3.73 µM

Inquiry: Query: TGI; subject: CN(C)C1C(=O)C(C(=O)NCN2CCCC2)=C(O)C2(O)C(=O)C3=C(O)c4c(O)cccc4C(C)(O)C3CC12 (stereo not given)
Reply text: > 100 µM

Inquiry: Query: TGI; subject: CC(C)OC(=O)[C@@H]1OC(C)(C)O[C@H]1C(=O)OC(C)C
Reply text: > 100 µM

Inquiry: Query: TGI; subject: CC(C)CC(NC(=O)OC(C)(C)C)C(=O)NC(CC(=O)OCc1ccccc1)C(N)=O (stereo not drawn) (Boc-Leu-Asp(OBn)-NH2; configuration not given here)
Reply text: > 100 µM

Inquiry: Query: TGI; subject: Nc1nonc1C(=Nc1ccc(F)c(Cl)c1)NO
Reply text: > 100 µM

Inquiry: Query: TGI; subject: NC(=S)N/N=C1\CCCCc2ccccc21
Reply text: > 10 µM

Inquiry: Query: TGI; subject: c1ccc([P+](c2ccccc2)(c2ccccc2)c2ccc3c4ccc([P+](c5ccccc5)(c5ccccc5)c5ccccc5)c5cccc(c6cccc2c63)c54)cc1
Reply text: 25.3 µM

Inquiry: Query: TGI; subject: O=C(CSc1nc2ccccc2c2ccccc12)c1ccccc1
Reply text: > 100 µM

Inquiry: Query: TGI; subject: COc1ccc(NC2=NCCO2)c2c1CCCC2
Reply text: 86.2 µM

====

- Test system: SK-MEL-5 melanoma
- RUN_DESCRIPTION: NCI tumour cell line growth inhibition, 48 h
MEASURE: TGI

C1CSC(Sc2nc(SC3=NCCS3)nc(SC3=NCCS3)n2)=N1 : > 100 µM
Cc1[nH]c(=O)[nH]c(=S)c1C(=O)NC1C2CCCCC2NC2CCCCC21 (centres undefined) : 33.3 µM
NC1CCCCC1N.Nc1c(N=Nc2ccc(-c3ccc(N=Nc4cc(S(=O)(=O)[O-])c5ccccc5c4N)cc3)cc2)cc(S(=O)(=O)[O-])c2ccccc12.[OH3+].[OH3+].[Pt+4] : > 83.9 µM

# next molecule below
Inquiry: Query: TGI; subject: CCN(CC)CCNc1ccc2nnn3c4ccc([N+](=O)[O-])cc4c(=O)c1c23
Reply text: 58.7 µM
